Provide the recorded EC50 for the entries that follow.
Molecular target: human TGR5 (Homo sapiens, UniProt Q8TDU6)
Construct: expressed in transfected cells; host or cells: HEK293
Sequence (Q8TDU6 1-330): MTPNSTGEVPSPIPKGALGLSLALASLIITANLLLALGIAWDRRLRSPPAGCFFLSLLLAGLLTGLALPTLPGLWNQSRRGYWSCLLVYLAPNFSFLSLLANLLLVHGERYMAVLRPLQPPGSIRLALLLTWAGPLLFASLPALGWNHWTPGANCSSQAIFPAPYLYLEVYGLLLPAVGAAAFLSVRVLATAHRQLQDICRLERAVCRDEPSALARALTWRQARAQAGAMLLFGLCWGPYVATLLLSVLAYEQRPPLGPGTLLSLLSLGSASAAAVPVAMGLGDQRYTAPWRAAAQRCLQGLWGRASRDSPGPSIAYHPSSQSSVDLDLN
Test: Cell-based TGR5 assay (cAMP generation, HTRF)
Conditions: HEK293 cells stably transfected with human TGR5; cAMP by HTRF; 30 minutes at 37° C.; read-out: pEC50 Human TGR5 (converted)

q: Value lookup for EC50; key = CCS(=O)(=O)CCN(CCCC(C)c1ccc(Cl)c(COC2(c3cnccc3-c3ccccc3OC3CC3)CC2)c1)C(=O)[C@@H](O)[C@@H](O)[C@H](O)[C@@H](O)CO (stereo partly drawn)
a: < 100 nM

q: Value lookup for EC50; key = O=C(NCCCCNS(=O)(=O)c1ccc(Cl)c(COC2(c3cnccc3-c3ccccc3OC3CC3)CC2)c1)[C@@H](O)[C@@H](O)[C@H](O)[C@@H](O)CO
a: < 100 nM

q: Value lookup for EC50; key = COCCCN(CCCC(C)c1ccc(C)c(CNC2(c3cnccc3-c3ccccc3OC3CC3)CC2)c1)C(=O)[C@@H](O)[C@@H](O)[C@H](O)[C@@H](O)CO (stereo partly drawn)
a: < 100 nM

q: Value lookup for EC50; key = [2H]C([2H])(NC(=O)N[C@@H](CO)[C@@H](O)[C@H](O)[C@H](O)CO)C([2H])([2H])C([2H])([2H])C([2H])([2H])N(C)S(=O)(=O)c1ccc(Cl)c(COC2(c3cnccc3-c3ccccc3OC3CC3)CC2)c1
a: < 100 nM

q: Value lookup for EC50; key = CN(CCCCNC(=O)N[C@@H](CO)[C@@H](O)[C@@H](O)[C@H](O)CO)S(=O)(=O)c1ccc(Cl)c(COC2(c3cnccc3-c3ccccc3OC3CC3)CC2)c1
a: < 100 nM

q: Value lookup for EC50; key = CNC(=O)N(CCCCc1cc(Cl)c(COC2(c3cnccc3-c3ccccc3OC3CC3)CC2)cc1Cl)C[C@H](O)[C@@H](O)[C@H](O)[C@H](O)CO
a: < 100 nM

q: Value lookup for EC50; key = CN(C)C(=O)c1ccc(Cl)c(COC2(c3cnccc3-c3ccccc3OC3CC3)CC2)c1
a: 126 to 1000 nM

q: Value lookup for EC50; key = CS(=O)(=O)NCCCCN(CCCCSc1ccc(Cl)c(COC2(c3cnccc3-c3ccccc3OC3CC3)CC2)c1)C(=O)[C@@H](O)[C@@H](O)[C@H](O)[C@@H](O)CO
a: < 100 nM

q: Value lookup for EC50; key = CN(C[C@H](O)[C@@H](O)[C@H](O)[C@H](O)CO)C(=O)c1ccc(CSc2ccc(Cl)c(CNC3(c4cnccc4-c4ccccc4OC4CC4)CC3)c2)cc1
a: 126 to 1000 nM

q: Value lookup for EC50; key = CN(CCCCc1cc(Cl)c(COC2(c3cnccc3-c3ccccc3OC3CC3)CC2)cc1Cl)C(=O)CN(CCN(CC(=O)O)CC(=O)N(C)CCCCc1cc(Cl)c(COC2(c3cnccc3-c3ccccc3OC3CC3)CC2)cc1Cl)CC(=O)O
a: 126 to 1000 nM

q: Value lookup for EC50; key = CCCN(C[C@H](O)[C@@H](O)[C@H](O)[C@H](O)CO)C(=O)CCCSc1ccc(Cl)c(COC2(c3cnccc3-c3ccccc3OC3CC3)CC2)c1
a: < 100 nM

q: Value lookup for EC50; key = CC(C)N(CCCCNC(=O)NC[C@H](O)[C@@H](O)[C@H](O)[C@H](O)CO)S(=O)(=O)c1ccc(Cl)c(CNC2(c3cnccc3-c3ccccc3OC3CC3)CC2)c1
a: < 100 nM

q: Value lookup for EC50; key = CN(C)C(=O)CN(C[C@H](O)[C@@H](O)[C@H](O)[C@H](O)CO)C(=O)CCCSc1ccc(Cl)c(COC2(c3cnccc3-c3ccccc3OC3CC3)CC2)c1
a: 126 to 1000 nM

q: Value lookup for EC50; key = Cc1cc(CNC2(c3cnccc3-c3ccccc3OC3CC3)CC2)c(Cl)cn1
a: < 100 nM

q: Value lookup for EC50; key = CC(C)N(CCCCNC(=O)NC[C@H](O)[C@@H](O)[C@H](O)[C@H](O)CO)S(=O)(=O)c1ccc(Cl)c(COC2(c3cnccc3-c3ccccc3OC3CC3)CC2)c1
a: < 100 nM

q: Value lookup for EC50; key = O=C([C@@H](O)[C@@H](O)[C@H](O)[C@@H](O)CO)N(CCCSc1ccc(Cl)c(COC2(c3cnccc3-c3ccccc3OC3CC3)CC2)c1)CCN1CCS(=O)(=O)CC1
a: 126 to 1000 nM

q: Value lookup for EC50; key = CC(=O)NCCN(CCCCSc1ccc(Cl)c(CNC2(c3cnccc3-c3ccccc3OC3CC3)CC2)c1)C(=O)[C@@H](O)[C@@H](O)[C@H](O)[C@@H](O)CO
a: 126 to 1000 nM

q: Value lookup for EC50; key = CC(CCCN(CCN1CCNC1=O)C(=O)[C@@H](O)[C@@H](O)[C@H](O)[C@@H](O)CO)c1ccc(Cl)c(CNC2(c3cnccc3-c3ccccc3OC3CC3)CC2)c1 (stereo partly drawn)
a: 126 to 1000 nM

q: Value lookup for EC50; key = CSc1cc(CNC2(c3cnccc3-c3ccccc3OC3CC3)CC2)c(C)cn1
a: < 100 nM

q: Value lookup for EC50; key = CS(=O)(=O)CCCN(CCCSc1ccc(Cl)c(COC2(c3cnccc3-c3ccccc3OC3CC3)CC2)c1)C(=O)[C@@H](O)[C@@H](O)[C@H](O)[C@@H](O)CO
a: 126 to 1000 nM

q: Value lookup for EC50; key = COCCN(CCCCCNC(=O)N[C@@H](CO)[C@@H](O)[C@H](O)[C@H](O)CO)S(=O)(=O)c1ccc(Cl)c(COC2(c3cnccc3-c3ccccc3OC3CC3)CC2)c1
a: < 100 nM
